We begin with a simple list: items and their reported IC50.
target-of-assay: P-type calcium channels (Rattus norvegicus)
Construct: Male rats (Sprague-Dawley, 200-220 g) were killed by decapitation and neocortices were isolated by blunt dissection; from tissue; host or cells: Sprague-Dawley rat neocortex, crude synaptosomes
protocol: Inhibition of depolarization induced Ca++ flux (CaFl), 45Ca++ influx into rat neocortical synaptosomes
Type: biochemical
settings: 30 mM KCl stimulated 45Ca flux, rat neocortical synaptosomes
measured-metric: IC50

COc1ccc(CCN(Cc2ccccc2F)CC(O)COc2cccc(C)c2)cc1OC (stereo not drawn) [Example 13]    1.8 µM
COc1ccccc1CN(CCc1ccc(OC)c(OC)c1)CC(O)COc1cccc(C)c1 (stereo not drawn) [Example 12]    4.1 µM
COc1ccc(CCN(Cc2ccccc2)CC(O)COc2ccc3c(c2)CCC3)cc1OC (stereo not drawn) [Example 16]    4.8 µM
COc1ccc(CCN(Cc2ccccc2)CC(O)COc2cccc(C(F)(F)F)c2)cc1OC (stereo not drawn) [Example 20]    4.7 µM
COc1ccc(CCN(Cc2ccccc2)CC(O)CSc2cccc(C(F)(F)F)c2)cc1OC (stereo not drawn) [Example 21]    4.3 µM
COc1ccc(CCN(Cc2ccccc2)CC(O)COc2cccc3ccccc23)cc1OC (stereo not drawn) [Example 18]    8.1 µM

* * *

target-of-assay: P-type calcium channels (Rattus norvegicus, UniProt P54282)
Construct: Male rats (Sprague-Dawley, 200-220 g) were killed by decapitation and neocortices were isolated by blunt dissection; from tissue; host or cells: Sprague-Dawley rat neocortex, crude synaptosomes
Sequence (P54282 whole entry): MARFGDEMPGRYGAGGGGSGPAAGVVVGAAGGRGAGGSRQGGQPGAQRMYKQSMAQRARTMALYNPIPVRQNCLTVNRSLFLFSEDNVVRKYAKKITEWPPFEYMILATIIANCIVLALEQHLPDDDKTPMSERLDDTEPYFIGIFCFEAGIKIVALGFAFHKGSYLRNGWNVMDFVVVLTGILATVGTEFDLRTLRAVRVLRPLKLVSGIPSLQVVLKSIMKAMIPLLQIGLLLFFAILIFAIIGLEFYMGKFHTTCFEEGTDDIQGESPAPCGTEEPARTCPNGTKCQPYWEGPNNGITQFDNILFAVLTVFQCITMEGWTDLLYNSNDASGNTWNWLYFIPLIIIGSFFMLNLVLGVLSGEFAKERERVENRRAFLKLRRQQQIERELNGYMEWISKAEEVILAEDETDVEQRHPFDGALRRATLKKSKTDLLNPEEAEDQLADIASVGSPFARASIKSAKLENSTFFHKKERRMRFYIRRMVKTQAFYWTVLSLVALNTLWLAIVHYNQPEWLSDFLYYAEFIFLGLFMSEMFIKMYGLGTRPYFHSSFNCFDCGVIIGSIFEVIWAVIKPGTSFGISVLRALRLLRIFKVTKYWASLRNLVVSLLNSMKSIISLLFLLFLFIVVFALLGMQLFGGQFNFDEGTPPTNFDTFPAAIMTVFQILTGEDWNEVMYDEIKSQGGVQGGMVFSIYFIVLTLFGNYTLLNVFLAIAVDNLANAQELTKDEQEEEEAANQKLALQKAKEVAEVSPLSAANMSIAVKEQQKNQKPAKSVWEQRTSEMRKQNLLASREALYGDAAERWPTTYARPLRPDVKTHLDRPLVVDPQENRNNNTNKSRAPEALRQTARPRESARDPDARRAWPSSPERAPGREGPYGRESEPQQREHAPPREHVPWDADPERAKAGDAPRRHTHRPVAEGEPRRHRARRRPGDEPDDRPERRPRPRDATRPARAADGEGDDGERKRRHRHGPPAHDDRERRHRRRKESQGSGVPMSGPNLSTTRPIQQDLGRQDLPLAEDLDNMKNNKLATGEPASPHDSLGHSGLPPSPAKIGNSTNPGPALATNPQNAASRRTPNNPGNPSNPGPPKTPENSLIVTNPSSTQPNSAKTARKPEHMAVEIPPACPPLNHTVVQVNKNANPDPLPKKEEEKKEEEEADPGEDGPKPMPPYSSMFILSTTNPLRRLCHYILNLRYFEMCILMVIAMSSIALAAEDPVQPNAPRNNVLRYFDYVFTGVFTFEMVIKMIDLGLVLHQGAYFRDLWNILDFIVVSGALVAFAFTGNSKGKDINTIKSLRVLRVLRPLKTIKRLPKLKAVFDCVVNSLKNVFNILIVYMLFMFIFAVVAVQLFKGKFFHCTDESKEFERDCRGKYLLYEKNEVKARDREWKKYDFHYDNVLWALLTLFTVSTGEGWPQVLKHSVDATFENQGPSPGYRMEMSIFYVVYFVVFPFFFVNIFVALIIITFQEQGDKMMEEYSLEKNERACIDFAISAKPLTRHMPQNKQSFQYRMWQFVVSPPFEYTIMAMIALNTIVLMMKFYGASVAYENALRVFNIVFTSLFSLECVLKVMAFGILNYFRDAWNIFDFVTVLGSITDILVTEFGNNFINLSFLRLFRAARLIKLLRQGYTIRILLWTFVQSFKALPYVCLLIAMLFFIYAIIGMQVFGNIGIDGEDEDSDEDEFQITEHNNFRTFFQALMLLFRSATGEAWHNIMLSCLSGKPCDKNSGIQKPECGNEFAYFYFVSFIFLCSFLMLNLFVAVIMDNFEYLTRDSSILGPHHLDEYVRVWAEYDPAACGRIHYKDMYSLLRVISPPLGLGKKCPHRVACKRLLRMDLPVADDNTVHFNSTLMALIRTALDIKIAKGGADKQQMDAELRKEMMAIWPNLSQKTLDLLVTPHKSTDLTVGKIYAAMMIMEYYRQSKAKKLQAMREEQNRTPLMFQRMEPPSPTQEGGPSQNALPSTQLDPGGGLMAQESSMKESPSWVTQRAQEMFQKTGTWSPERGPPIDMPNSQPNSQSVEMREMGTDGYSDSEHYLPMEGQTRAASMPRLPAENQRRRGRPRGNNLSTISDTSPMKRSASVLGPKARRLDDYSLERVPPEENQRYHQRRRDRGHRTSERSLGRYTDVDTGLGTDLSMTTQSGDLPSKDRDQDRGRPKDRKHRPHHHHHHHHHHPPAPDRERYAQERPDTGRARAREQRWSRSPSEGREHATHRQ
protocol: Inhibition of depolarization induced Ca++ flux (CaFl), 45Ca++ influx into rat neocortical synaptosomes
Format: biochemical
settings: at 10 μM; read-out: CaFl, percent inhibition
Response key: Met means inhibition at 10 µM >= 50%; Not met means inhibition at 10 µM < 50%.

COc1ccc(CCN(C)CC(O)COc2ccc3c(c2)CCC3)cc1OC (stereo not drawn)    Not met
COc1ccc(CCN(Cc2cccc(Cl)c2)CC(O)COc2cccc(C)c2)cc1OC (stereo not drawn)    Not met
COc1ccc(CCN(Cc2ccccc2Cl)CC(O)COc2cccc(C)c2)cc1OC (stereo not drawn)    Not met
COc1ccc(CCN(Cc2cccc([N+](=O)[O-])c2)CC(O)COc2cccc(C)c2)cc1OC (stereo not drawn)    Met
COc1ccc(CCN(Cc2ccc([N+](=O)[O-])cc2)CC(O)COc2cccc(C)c2)cc1OC (stereo not drawn)    Met
COc1ccc(CCN(Cc2ccc(Cl)cc2)CC(O)COc2cccc(C)c2)cc1OC (stereo not drawn)    Not met

* * *

pKi for assorted molecules
target-of-assay: sodium channels
settings: rat neocortical membranes, 5 nM [3H]batrachotoxinin, Cheng-Prusoff; read-out: BTX Binding
pKi: −log10 of the molar value.
measured-metric: pKi

COc1ccc(CCN(Cc2ccccc2)CC(O)CSc2cccc(C(F)(F)F)c2)cc1OC (centres unmarked)    6.36
COc1ccc(CN(CCc2ccc(OC)c(OC)c2)CC(O)COc2cccc(C)c2)cc1 (centres unmarked)    6.82
COc1ccc(CCN(Cc2ccccc2)CC(O)COc2ccc(OCc3ccccc3)cc2)cc1OC (centres unmarked)    7.80
COc1ccc(CCN(Cc2c[nH]c3ccccc23)CC(O)COc2cccc(C)c2)cc1OC (centres unmarked)    7.82
COc1ccc(CCN(Cc2ccccc2)CC(O)COc2cccc(C)c2)cc1OC (centres unmarked)    6.28
COc1ccc(CCN(Cc2ccccc2)CC(O)COc2cccc(C(F)(F)F)c2)cc1OC (centres unmarked)    6.21
COc1ccc(CCN(Cc2ccccc2)CC(O)CSc2cccc3ccccc23)cc1OC (centres unmarked)    6.70
COc1ccc(CCN(C)CC(O)COc2ccc(C3CCCCC3)cc2C)cc1OC (centres unmarked)    6.51

* * *

target-of-assay: P-type calcium channels (Rattus norvegicus)
Construct: Male rats (Sprague-Dawley, 200-220 g) were killed by decapitation and neocortices were isolated by blunt dissection
protocol: Inhibition of depolarization induced Ca++ flux (CaFl), 45Ca++ influx into rat neocortical synaptosomes
settings: 30 mM KCl stimulated 45Ca flux, rat neocortical synaptosomes
Each entry below carries its reported IC50.
measured-metric: IC50 (µM)

COc1ccc(CCN(Cc2ccc(F)cc2)CC(O)COc2cccc(C)c2)cc1OC (stereo not drawn) [Example 1]    5.2
COc1ccc(CCN(Cc2cccc(F)c2)CC(O)COc2cccc(C)c2)cc1OC (stereo not drawn) [Example 4]    6.6
COc1ccc(CCN(CCc2ccccc2)CC(O)COc2cccc(C)c2)cc1OC (stereo not drawn) [Example 22]    1.4
COc1ccc(CCN(Cc2c[nH]c3ccccc23)CC(O)COc2cccc(C)c2)cc1OC (stereo not drawn) [Example 30]    4.5
COc1ccc(CCN(C)CC(O)COc2cccc3ccccc23)cc1OC (stereo not drawn) [Example 28]    6.8
COc1ccc(CCN(C)CC(O)CSc2cccc3ccccc23)cc1OC (stereo not drawn) [Example 29]    3.6
COc1ccc(CCN(CC(O)COc2cccc(C)c2)CC2CCCCC2)cc1OC (stereo not drawn) [Example 23]    1.9
COc1ccc(CCN(Cc2cccc3ccccc23)CC(O)COc2cccc(C)c2)cc1OC (stereo not drawn) [Example 9]    9.9
COc1ccc(CCN(Cc2ccccc2)CC(O)COc2ccc(OCc3ccccc3)cc2)cc1OC (stereo not drawn) [Example 14]    5

* * *

target-of-assay: P-type calcium channels (Rattus norvegicus, UniProt P54282)
Construct: Male rats (Sprague-Dawley, 200-220 g) were killed by decapitation and neocortices were isolated by blunt dissection; from tissue; host or cells: Sprague-Dawley rat neocortex, crude synaptosomes
protocol: Inhibition of depolarization induced Ca++ flux (CaFl), 45Ca++ influx into rat neocortical synaptosomes
Format: biochemical
settings: at 30 μM; read-out: CaFl, percent inhibition
Source text: A large influx of calcium from extracellular compartments into neurons is observed after opening of voltage-dependent calcium channels. The opening of calcium channels may be induced by a K^+ -stimulated depolarization of neuronal membranes. […] The calcium influx measured in this assay is believed to represent the P-type calcium channels. […]
Decision: inhibition at 30 µM >= 60% yields 1, all other cases yield 0.

COc1ccc(CCN(C)CC(O)COc2cccc(C)c2)cc1OC (stereo not drawn)    0
COc1ccc(CCN(Cc2ccc([N+](=O)[O-])cc2)CC(O)COc2cccc(C)c2)cc1OC (stereo not drawn)    1
COc1ccc(CCN(Cc2ccc(Cl)cc2)CC(O)COc2cccc(C)c2)cc1OC (stereo not drawn)    1
COc1ccc(CCN(Cc2cccc([N+](=O)[O-])c2)CC(O)COc2cccc(C)c2)cc1OC (stereo not drawn)    1
COc1ccc(CCN(Cc2ccccc2Cl)CC(O)COc2cccc(C)c2)cc1OC (stereo not drawn)    0
COc1ccc(CCN(C)CC(O)COc2ccc3c(c2)CCC3)cc1OC (stereo not drawn)    1
